# Assay info: Pharmacokinetics and absolute bioavailability in rats (LC-MS/MS)
# Format: in vivo
# Recorded conditions: male, Sprague-Dawley (SD), plasma; rat, intravenous administration 2.5 mg/kg, n = 5; read-out: MRT0-∞
# Description: A LC-MS/MS method for determination of compound I-5 and compound M2 in rat plasma was established through experiments to investigate the pharmacokinetic characteristics and absolute bioavailability of compounds in rats. 20 SPF-grade SD male rats (body weight 220±20 g), purchased from Beijing Vital River Laboratory Animal Technology Co., Ltd. • Chromatographic column: waters BEH C18 1.7 μm; 2.1×100 mm Column • Internal standard: D-I-5 (deuterated compound I-5, with the following structural formula) […]
List of MRT inf values.
Please reply with the bare figure in min and do not write the unit itself.

1) CC(C)CNC(=O)/C=C/c1cc2c(c(C(F)(F)F)c1)OCO2 [Compound I-5]    22.2

Query molecule follows.
Query: MRT inf; subject: NC(=O)/C=C/c1cc2c(c(C(F)(F)F)c1)OCO2 [Compound M2] 18.6

All values here come from patent US20240217946A1.
